Molecular target: TYK2 (Homo sapiens)
Sequence (P29597 whole entry): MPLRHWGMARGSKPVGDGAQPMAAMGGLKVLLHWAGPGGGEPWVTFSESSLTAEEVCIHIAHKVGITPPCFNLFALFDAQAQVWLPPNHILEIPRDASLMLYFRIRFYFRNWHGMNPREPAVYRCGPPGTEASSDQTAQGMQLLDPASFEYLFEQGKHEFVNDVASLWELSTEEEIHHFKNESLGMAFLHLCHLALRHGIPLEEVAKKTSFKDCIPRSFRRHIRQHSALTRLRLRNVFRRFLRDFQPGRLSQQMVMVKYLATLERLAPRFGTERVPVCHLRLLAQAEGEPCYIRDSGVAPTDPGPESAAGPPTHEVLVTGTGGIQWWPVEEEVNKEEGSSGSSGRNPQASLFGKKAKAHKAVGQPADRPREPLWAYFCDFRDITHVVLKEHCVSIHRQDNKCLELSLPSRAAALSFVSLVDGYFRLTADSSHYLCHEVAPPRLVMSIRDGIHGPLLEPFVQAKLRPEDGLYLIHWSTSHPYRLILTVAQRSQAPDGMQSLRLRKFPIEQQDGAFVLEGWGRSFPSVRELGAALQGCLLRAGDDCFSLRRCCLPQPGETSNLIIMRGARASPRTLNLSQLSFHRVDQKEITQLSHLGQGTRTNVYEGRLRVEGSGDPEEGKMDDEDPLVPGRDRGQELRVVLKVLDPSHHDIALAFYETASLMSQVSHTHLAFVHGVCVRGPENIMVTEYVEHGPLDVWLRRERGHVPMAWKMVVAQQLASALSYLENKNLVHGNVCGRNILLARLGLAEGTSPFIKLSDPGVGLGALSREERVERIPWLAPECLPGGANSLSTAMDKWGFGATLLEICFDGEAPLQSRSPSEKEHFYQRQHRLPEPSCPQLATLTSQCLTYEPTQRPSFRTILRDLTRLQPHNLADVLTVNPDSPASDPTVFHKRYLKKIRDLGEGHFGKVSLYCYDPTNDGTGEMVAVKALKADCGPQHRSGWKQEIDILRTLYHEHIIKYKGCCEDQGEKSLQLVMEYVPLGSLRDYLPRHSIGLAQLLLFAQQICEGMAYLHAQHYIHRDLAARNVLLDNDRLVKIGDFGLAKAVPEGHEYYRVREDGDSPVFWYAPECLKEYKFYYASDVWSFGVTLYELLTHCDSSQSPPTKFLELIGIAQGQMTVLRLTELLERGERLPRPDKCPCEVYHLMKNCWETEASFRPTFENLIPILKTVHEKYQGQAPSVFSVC
Experiment: TYK2 protein degradation in MOLT-4 cells by immunoblotting
Assay type: cell-based
Parameters: endogenous in cells; host or cells: MOLT-4
Conditions: MOLT-4 cells, 5 μM, 24 hours
Experimental: MOLT-4 cells were treated with compounds at 0.5 and 5 μM concentrations for 24 hours. MOLT-4 cells were treated with CPD-038, CPD-039, and CPD-040 at 0.04, 0.2, 1, and 5 μM concentrations for 24 hours. […] Cultured cells were washed with cold PBS once and lysed in cold RIPA buffer supplemented with protease inhibitors and phosphatase inhibitors (Beyotime Biotechnology). […] Total protein concentrations in the lysates were determined by BCA assays (Beyotime Biotechnology). […]
reported-property: TYK2 Degradation (5 μM)

Param item = CNC(=O)c1nnc(NC(=O)CNC(=O)CCCCNc2cccc3c2C(=O)N(C2CCC(=O)NC2=O)C3=O)cc1Nc1cccc(-c2ncn(C)n2)c1OC (stereo not drawn) ; retrieve measured TYK2 Degradation (5 μM).
≤20%

Same question for CNC(=O)c1nnc(NC(=O)C2CC2)cc1Nc1cccc(-c2ncn(CCNC(=O)CCCCCCCNc3ccc4c(c3)C(=O)N(C3CCC(=O)NC3=O)C4=O)n2)c1OC (stereo not drawn) please.
30%

Same question for CNC(=O)c1nnc(NC(=O)CNC(=O)CCCCCCCNc2ccc3c(c2)C(=O)N(C2CCC(=O)NC2=O)C3=O)cc1Nc1cccc(-c2ncn(C)n2)c1OC (stereo not drawn) please.
≤20%
